These data points were gathered from paper PMC7947296.

tested-target: UniProtKB P53341
Sequence (P53341 whole entry): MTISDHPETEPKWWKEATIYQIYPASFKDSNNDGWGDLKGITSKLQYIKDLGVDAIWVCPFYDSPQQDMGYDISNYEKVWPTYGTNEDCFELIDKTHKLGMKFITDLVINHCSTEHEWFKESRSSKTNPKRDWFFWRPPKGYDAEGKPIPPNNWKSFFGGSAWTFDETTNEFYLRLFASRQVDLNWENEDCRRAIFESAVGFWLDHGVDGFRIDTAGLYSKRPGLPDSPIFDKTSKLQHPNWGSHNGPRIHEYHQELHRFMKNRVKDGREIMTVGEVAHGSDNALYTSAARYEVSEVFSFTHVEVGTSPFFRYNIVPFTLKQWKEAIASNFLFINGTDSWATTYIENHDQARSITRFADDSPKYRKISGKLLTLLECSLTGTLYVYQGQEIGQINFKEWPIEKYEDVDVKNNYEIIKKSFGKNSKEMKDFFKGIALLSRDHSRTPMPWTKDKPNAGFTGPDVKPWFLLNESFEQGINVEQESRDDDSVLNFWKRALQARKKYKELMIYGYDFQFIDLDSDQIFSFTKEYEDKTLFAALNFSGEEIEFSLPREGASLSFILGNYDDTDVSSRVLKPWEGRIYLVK
readout-kind: IC50 (µM)
Numeric answer only, unit µM assumed.

Challenge: Given the entry O=C1C=C(c2ccc(O)cc2)C(=O)C(O)=C1c1ccc(O)cc1 [Compound 20] , what IC50 was observed with UniProtKB P53341?
Response given: 8.9

Challenge: Given the entry Oc1ccc(-c2cc(O)c(-c3ccc(O)c(O)c3)c(O)c2O)cc1 [Compound 18] , what IC50 was observed with UniProtKB P53341?
Response given: 25

Challenge: Given the entry Oc1ccc(-c2cc(O)c(-c3ccc(O)c(O)c3)c(O)c2O)cc1O [Compound 19] , what IC50 was observed with UniProtKB P53341?
Response given: 19.4

Challenge: Given the entry COc1c(-c2ccc(O)cc2)cc(OC)c2c1oc1cc(O)c(O)cc12 [Compound 15, candidusin A] , what IC50 was observed with UniProtKB P53341?
Response given: 13.1

Challenge: Given the entry Oc1ccc(-c2cc(O)c(-c3ccc(O)cc3)c(O)c2O)cc1 [Compound 17] , what IC50 was observed with UniProtKB P53341?
Response given: 25.1

###

protocol-details: Cytotoxic effects on caco-2 cells by CTG assay
Assay type: cell-based
assay-setup: human, 72 h incubation, read-out: inhibitory rate (cytotoxicity to caco-2 cells)
Recorded measurements of inhibition at 72 h, 1 µM, one per entry
Numeric answer only, unit % assumed.

Worked examples follow.
# molecule, reported-result
records = [
    ("COc1cc(-c2ccc(O)cc2)c(OC)c(O)c1-c1ccc(O)c(O)c1 [Compound 6, 3-hydroxyterphyllin]", 0.2),
    ("COc1c(-c2ccc(O)cc2)cc(OC)c2c1oc1cc(O)c(O)cc12 [Compound 15, candidusin A]", 20.5),
    ("COc1cc(-c2ccc(O)cc2)c(OC)c(O)c1-c1ccc(O)cc1 [Compound 5, terphenyllin]", 0.4),
]

Challenge: # inhibition at 72 h, 1 µM lookup, item O=C1C=C(c2ccc(O)cc2)C(=O)C(O)=C1c1ccc(O)c(O)c1 [Compound 21]
Response given: 1.2

###

protocol-details: Cytotoxic effects on caco-2 cells by CTG assay
Type: cell-based
assay-setup: human, 72 h incubation, read-out: inhibitory rate (cytotoxicity to caco-2 cells)
Recorded measurements of inhibition at 72 h, 1 µM, one per entry
Numeric answer only, unit % assumed.

Worked examples follow.
# molecule, inhibition at 72 h, 1 µM, %
measured = [
    ("COc1c(-c2ccc(O)c(O)c2)cc(OC)c2c1oc1cc(O)c(O)cc12", 2.7),
    ("COc1cc(-c2ccc(O)c(O)c2)c(OC)c(O)c1-c1ccc(O)c(O)c1 [Compound 7, 3,3″-dihydroxyterphyllin]", 0.5),
]

# evaluate next
Challenge: # inhibition at 72 h, 1 µM lookup, item `O=C1C=C(c2ccc(O)cc2)C(=O)C(O)=C1c1ccc(O)cc1`
Response given: 0.4

###

protocol-details: Oxygen radical absorbance capacity (ORAC) assay
assay-setup: trolox equivalents; tested at 6.25 μM (compounds 4–7), 12.5 μM (1–3, 8–16), 25.0 μM (17–25); PBS pH 7.4, 37°C
Recorded measurements of ORAC (μMole TE/μMole), one per entry
Numeric answer only, unit μMole TE/μMole assumed.

# compound, reported-result
records = [
    ("O=C1C=C(c2ccc(O)c(O)c2)C(=O)C(O)=C1c1ccc(O)c(O)c1", 2.8),
]

Challenge: # ORAC (μMole TE/μMole) lookup, item `Oc1ccc(-c2cc(O)c(-c3ccc(O)c(O)c3)c(O)c2O)cc1`
Response given: 3.7

Challenge: # ORAC (μMole TE/μMole) lookup, item `COc1cc(-c2ccccc2)c(OC)c(OC)c1-c1ccc(O)cc1`
Response given: 2.1

Challenge: # ORAC (μMole TE/μMole) lookup, item `COc1cc(-c2ccc(OC(C)=O)c(OC(C)=O)c2)c(OC)c(OC(C)=O)c1-c1ccc(OC(C)=O)c(OC(C)=O)c1`
Response given: 1.7

Challenge: # ORAC (μMole TE/μMole) lookup, item `COc1c(-c2ccc(O)c(O)c2)cc(OC)c2c1oc1cc(O)c(O)cc12`
Response given: 2.0

Challenge: # ORAC (μMole TE/μMole) lookup, item `COc1cc(-c2c(OC)cc(-c3ccc(O)cc3)c(OC)c2O)ccc1OCC=C(C)C`
Response given: 0.4

Challenge: # ORAC (μMole TE/μMole) lookup, item COc1cc(-c2ccccc2)c(OC)c(O)c1-c1ccc(O)c(O)c1 [Compound 9, 4″-deoxy-3-hydroxyterphenyllin]
Response given: 0.5

Challenge: # ORAC (μMole TE/μMole) lookup, item `COc1cc(-c2ccc(OC(C)=O)cc2)c(OC)c(OC(C)=O)c1-c1ccc(OC(C)=O)cc1`
Response given: 0.1

Challenge: # ORAC (μMole TE/μMole) lookup, item `COc1cc(-c2ccccc2)c(OC)c(O)c1-c1ccc(O)c(CC=C(C)C)c1`
Response given: 1.2

Challenge: # ORAC (μMole TE/μMole) lookup, item `COc1cc(-c2ccccc2)c(OC)c(O)c1-c1ccc(O)cc1`
Response given: 0.5

###

protocol-details: Oxygen radical absorbance capacity (ORAC) assay
assay-setup: trolox equivalents; tested at 6.25 μM (compounds 4–7), 12.5 μM (1–3, 8–16), 25.0 μM (17–25); PBS pH 7.4, 37°C
readout-kind: ORAC (μMole TE/μMole)

# smiles-text, reported-result
measured = [
    ("COc1cc(-c2ccc(OC(C)=O)cc2)c(OC)c(OC(C)=O)c1-c1ccc(OC(C)=O)c(OC(C)=O)c1", "0.8 ± 0.07 μMole TE/μMole"),
]

Challenge: # ORAC (μMole TE/μMole) lookup, item `Oc1ccc(-c2cc(O)c(-c3ccc(O)c(O)c3)c(O)c2O)cc1O`
Response given: 2.6 ± 0.1 μMole TE/μMole

Challenge: # ORAC (μMole TE/μMole) lookup, item `COc1cc(-c2ccc(O)cc2)c(OC)c(O)c1-c1ccccc1`
Response given: 1.2 ± 0.09 μMole TE/μMole

Challenge: # ORAC (μMole TE/μMole) lookup, item `COc1cc(-c2ccc(O)c(CC=C(C)C)c2)c(OC)c(O)c1-c1ccc(O)c(O)c1`
Response given: 1.4 ± 0.01 μMole TE/μMole

Challenge: # ORAC (μMole TE/μMole) lookup, item `COc1cc(-c2ccc(O)cc2)c(OC)c(OC)c1-c1ccc(O)cc1`
Response given: 0.5 ± 0.03 μMole TE/μMole

Challenge: # ORAC (μMole TE/μMole) lookup, item `O=C1C=C(c2ccc(O)cc2)C(=O)C(O)=C1c1ccc(O)c(O)c1`
Response given: 3.9 ± 0.1 μMole TE/μMole

###

protocol-details: Oxygen radical absorbance capacity (ORAC) assay
assay-setup: trolox equivalents; tested at 6.25 μM (compounds 4–7), 12.5 μM (1–3, 8–16), 25.0 μM (17–25); PBS pH 7.4, 37°C
Method: The anti-oxidative activity of compounds was evaluated by ORAC assay ([Huang et al., 2002]) that was carried out mainly by using 2,2′-azobis(2-amidinopropane) dihydrochloride (AAPH, 153.0 μM), fluorescein (FL, 81.6 nM), testing compounds, and trolox as a positive control, all of which were dissolved in phosphate buffer solution (PBS, 75 mM, pH 7.4). […]
Recorded measurements of ORAC (μMole TE/μMole), one per entry
Numeric answer only, unit μMole TE/μMole assumed.

# smiles-text, reported-result
records = [
    ("COc1cc(-c2c(OC)cc(-c3ccccc3)c(OC)c2O)ccc1OCC=C(C)C", 1.0),
    ("COc1c(-c2ccccc2)cc(OC)c2c1oc1cc(O)c(O)cc12", 0.4),
]

Challenge: # ORAC (μMole TE/μMole) lookup, item `COc1c(-c2ccc(O)cc2)cc(OC)c2c1oc1cc(O)c(O)cc12`
Response given: 2.1
